# experimentalProtocol: amyloid nucleation score (Sup35N fusion, yeast selection) (log enrichment); library NNK1; higher = more nucleation; inactive = no reads after selection;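 also: zero at mode of non-aggregating sequences after 7 days selection at 30°C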
Exercise: state measured amyloid nucleation score for each of the substances provided.
Just the number.

*Q* Specify amyloid nucleation score for `MSGCLDDNANC` and stop.
*A* -0.382

*Q* Specify amyloid nucleation score for `VPILFRLLVNTSPYNGPLGL` and stop.
*A* -0.042

*Q* Specify amyloid nucleation score for `SWAWIACIGAMNPEN` and stop.
*A* -0.478

*Q* Specify amyloid nucleation score for `VKSSFNMSARVVLDENIHER` and stop.
*A* -0.067

*Q* Specify amyloid nucleation score for `CYAGFCNQRLPHYLLKLQVL` and stop.
*A* -0.42

*Q* Specify amyloid nucleation score for `TNPLDPLLCNVYQVLDMPCM` and stop.
*A* 0.497

*Q* Specify amyloid nucleation score for `CKDFRRAVVNEFPVSVSFYC` and stop.
*A* 0.922

*Q* Specify amyloid nucleation score for `NGFSYVCFNGFQLMCLDSIM` and stop.
*A* 7.78

*Q* Specify amyloid nucleation score for `NYLERHMQHPMRTHVFRGQL` and stop.
*A* 0.129

*Q* Specify amyloid nucleation score for `HVGRHTTTGHAGFCNCGNPN` and stop.
*A* 3.46

*Q* Specify amyloid nucleation score for `YSIVFGWLRYRLDWMCLISL` and stop.
*A* 0.055

*Q* Specify amyloid nucleation score for `DASTEITGLAPGFSTTVGRM` and stop.
*A* -0.536

*Q* Specify amyloid nucleation score for `VRGLGGW` and stop.
*A* -0.134

*Q* Specify amyloid nucleation score for `SDNVSRLRILDR` and stop.
*A* 1.93

*Q* Specify amyloid nucleation score for `DLKALCCDRMKVLGFVRSPG` and stop.
*A* 1.18

*Q* Specify amyloid nucleation score for `HHLAKCRTLKLYLLWLQRIL` and stop.
*A* 0.471

###

# experimentalProtocol: amyloid nucleation score (Sup35N fusion, yeast selection) (log enrichment); library NNK2; higher = more nucleation; inactive = no reads after selection

| substance | amyloid nucleation score |
| --- | --- |
| DDIIISPVPDHE | inactive |
| LTPYEYCVYDCFLSLESVLF | inactive |
| LRRASINCKMLGGDVGQVMW | 0.404 |
| NSVRSV | inactive |

###

# experimentalProtocol: amyloid nucleation score (Sup35N fusion, yeast selection) (log enrichment); library NNK3; higher = more nucleation; inactive = no reads after selection
resultType: amyloid nucleation score

These solved cases illustrate the format of a correct answer.
| querySequence | reported |
| --- | --- |
| LEDSLPQIPTQIVGWWFLKM | inactive |
| DDHLGKVGSGFRIGICTLQN | inactive |
| MSNMWKEYALALVVGLSFRL | inactive |
| RFTSVILNTSDLSKLRMGTE | 0.437 |
| LRSKECIKMALKWLCKKYYW | inactive |

*Q* Specify amyloid nucleation score for `YITLRGLWRYCQVMLVYVWK` and stop.
*A* inactive

*Q* Specify amyloid nucleation score for `FCRPLSCRSIWCHLLPTHLR` and stop.
*A* inactive

*Q* Specify amyloid nucleation score for `LCEEYYSINTWFRYVNVDIL` and stop.
*A* inactive

*Q* Specify amyloid nucleation score for `RSSVYGQLILVPHYFDCLNL` and stop.
*A* inactive

*Q* Specify amyloid nucleation score for `DYSFYTFPESAVLCTCSSYG` and stop.
*A* -0.682

*Q* Specify amyloid nucleation score for `TNVRIYCSWGVDAG` and stop.
*A* inactive

*Q* Specify amyloid nucleation score for `RVTVPDVDCGKASWSPGKVC` and stop.
*A* inactive
